B1: RAB40A (parent)
chain: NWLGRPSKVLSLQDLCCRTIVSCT

variants of: B1; test: protein stability index of a GFP-peptide fusion (GPS, HEK-293T) (PSI 1-6); higher = more stable; conditions: c terminus: a fixed tail appended;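 note: lentivirally expressed fusions sorted by FACS into six bins by GFP to DsRed ratio, PSI derived from sequencing read proportions per bin multiplied by bin number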

>  <sequenceVariant>
N1H

>  <protein stability index>
2.2

$$$$
>  <sequenceVariant>
L3P

>  <protein stability index>
2.58

$$$$
>  <sequenceVariant>
V9N

>  <protein stability index>
2.4

$$$$
>  <sequenceVariant>
G4W

>  <protein stability index>
2.09

$$$$
>  <sequenceVariant>
S22R

>  <protein stability index>
2.77

$$$$
>  <sequenceVariant>
D14T

>  <protein stability index>
2.11

$$$$
>  <sequenceVariant>
Q13V

>  <protein stability index>
2.81

$$$$
>  <sequenceVariant>
C16V

>  <protein stability index>
2.19

$$$$
>  <sequenceVariant>
T24L

>  <protein stability index>
2.31

$$$$
>  <sequenceVariant>
R18E

>  <protein stability index>
2.49

$$$$
>  <sequenceVariant>
S11A

>  <protein stability index>
1.88

$$$$
>  <sequenceVariant>
S7K

>  <protein stability index>
2.59

$$$$
>  <sequenceVariant>
Q13I

>  <protein stability index>
2.93

$$$$
>  <sequenceVariant>
N1R

>  <protein stability index>
2.21

$$$$
>  <sequenceVariant>
V9Y

>  <protein stability index>
2.23

$$$$
>  <sequenceVariant>
K8S

>  <protein stability index>
2.31

$$$$
>  <sequenceVariant>
L10V

>  <protein stability index>
2.09

$$$$
>  <sequenceVariant>
S11G

>  <protein stability index>
1.54

$$$$
>  <sequenceVariant>
R5S

>  <protein stability index>
2.69

$$$$
>  <sequenceVariant>
S7V

>  <protein stability index>
2.22

$$$$
>  <sequenceVariant>
I20R

>  <protein stability index>
2.54

$$$$
>  <sequenceVariant>
V9K

>  <protein stability index>
2.29

$$$$

// provenance: the supplement of paper PMC10567573
